target.under.test: EGFR (Homo sapiens)
Construct: host or cells: A431
experiment.notes: EGFR in-cell Western (ICW) screening protocol (EGFR inhibition assay);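 on ICW Screen (ICW Inhibition): compound at 125 µM in assay in A431 cells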
Type: cell-based
Each item that follows carries a reported ICW Screen (ICW Inhibition).

| molecule | endpoint.name | observed |
| --- | --- | --- |
| COc1cc(NS(=O)(=O)c2ccc(NC(=S)NC(=O)/C=C/c3ccc(C)cc3)cc2)nc(OC)n1 [AD4-11874] | ICW Screen (ICW Inhibition) | 32.474 |
| CN(C1CCCCC1)S(=O)(=O)c1ccc(NC(=S)NC(=O)C2CC2)cc1 [AD4-11986] | ICW Screen (ICW Inhibition) | 25.368 |
| CC1CCN(S(=O)(=O)c2ccc(NC(=S)NC(=O)CCC(=O)OCCc3ccccc3)cc2)CC1 [AD4-12153] | ICW Screen (ICW Inhibition) | 31.36 |

Exam item: Recorded ICW Screen (ICW Inhibition) of Cc1cc(C)cc(NS(=O)(=O)c2ccc(NC(=S)NC(=O)CC(C)C)cc2)c1 [AD4-12017] , please.
Marked response: 27.373

Exam item: Which ICW Screen (ICW Inhibition) reading was recorded for the molecule O=C(NC(=S)Nc1ccc(S(=O)(=O)NCCc2ccccc2)cc1)C1CC1 [AD4-10120] ?
Marked response: 39.873

###

target.under.test: EGFR (Homo sapiens)
Construct: host or cells: A431
experiment.notes: EGFR in-cell Western (ICW) screening protocol (EGFR inhibition assay)
Assay type: cell-based
Parameters: unit not given here
test.parameters: ICW assay, run 2
Where a name gives a salt, the structure may show the parent alone.
endpoint.name: ICW 2
Give your answer as a number; write no unit.

Use these answered entries as a reference point.
| molecule | target.under.test | ICW 2 |
| --- | --- | --- |
| C=CCc1c(C)nc(Nc2nc(C)c3cccc(OC)c3n2)[nH]c1=O [compound 12746] | EGFR (Homo sapiens) | 47.28 |
| COc1cccc(-c2cc(=O)[nH]c(Nc3nc(C)c4cccc(C)c4n3)n2)c1 [compound 11474] | EGFR (Homo sapiens) | 48.71 |
| Cc1ccc(C2CC(=O)c3cnc(Nc4nc(C)c5cccc(C)c5n4)nc3C2)cc1 (stereo not shown) [11673 + TFA] | EGFR (Homo sapiens) | 17.39 |

Note: attention shifts to another entry.
Exam item: May I ask what ICW 2 has been recorded for Cc1cc(C)c2nc(Nc3nc(CSc4nnc(C)s4)cc(=O)[nH]3)nc(C)c2c1 [compound 11476] ?
Marked response: 31.11

###

Listed compounds paired with reported ICW Avg
target.under.test: EGFR (Homo sapiens, UniProt P00533)
Construct: host or cells: A431
Sequence (P00533 25-1210): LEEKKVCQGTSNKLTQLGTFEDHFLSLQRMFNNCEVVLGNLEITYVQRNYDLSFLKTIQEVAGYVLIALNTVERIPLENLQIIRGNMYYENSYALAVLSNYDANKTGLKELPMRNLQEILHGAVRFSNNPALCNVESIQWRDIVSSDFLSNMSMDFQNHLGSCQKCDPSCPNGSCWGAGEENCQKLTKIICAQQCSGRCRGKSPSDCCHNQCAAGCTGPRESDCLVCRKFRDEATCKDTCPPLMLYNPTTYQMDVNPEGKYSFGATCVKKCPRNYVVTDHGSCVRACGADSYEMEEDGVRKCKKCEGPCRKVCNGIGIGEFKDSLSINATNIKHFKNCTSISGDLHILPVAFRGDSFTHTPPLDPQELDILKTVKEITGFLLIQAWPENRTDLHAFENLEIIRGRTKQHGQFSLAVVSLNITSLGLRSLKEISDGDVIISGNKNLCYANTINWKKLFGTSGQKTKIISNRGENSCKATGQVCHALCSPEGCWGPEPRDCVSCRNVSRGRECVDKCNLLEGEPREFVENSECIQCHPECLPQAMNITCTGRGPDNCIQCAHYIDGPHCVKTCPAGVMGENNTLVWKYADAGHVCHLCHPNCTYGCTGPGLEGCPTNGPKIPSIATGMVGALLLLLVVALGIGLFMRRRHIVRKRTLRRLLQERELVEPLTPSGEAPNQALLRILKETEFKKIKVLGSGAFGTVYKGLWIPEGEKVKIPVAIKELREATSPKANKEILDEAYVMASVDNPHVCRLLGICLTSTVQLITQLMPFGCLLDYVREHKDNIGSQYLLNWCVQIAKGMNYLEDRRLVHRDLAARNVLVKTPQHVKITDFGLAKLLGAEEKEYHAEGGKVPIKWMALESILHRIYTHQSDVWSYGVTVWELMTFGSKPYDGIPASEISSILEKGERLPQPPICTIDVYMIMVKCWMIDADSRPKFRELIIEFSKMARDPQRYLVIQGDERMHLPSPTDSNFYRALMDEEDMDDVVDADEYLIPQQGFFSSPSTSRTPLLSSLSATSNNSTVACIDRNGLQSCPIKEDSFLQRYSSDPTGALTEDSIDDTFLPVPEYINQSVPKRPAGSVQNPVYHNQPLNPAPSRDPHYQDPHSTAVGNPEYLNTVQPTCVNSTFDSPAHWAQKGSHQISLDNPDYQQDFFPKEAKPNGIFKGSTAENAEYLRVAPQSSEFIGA
experiment.notes: EGFR in-cell Western (ICW) screening protocol (EGFR inhibition assay)
Format: cell-based
Parameters: unit not given here
test.parameters: ICW assay, average of runs 1 and 2
Method: The following example describes general EGFR in-cell Western (ICW) screening protocol. Methods are according to Chen et al. (2005) Analytical Biochemistry 338, 136-142 (incorporated herein by reference), except as otherwise noted. Cell Plates: A431 cells (ATCC # CRL-1555) were grown in Dulbecco's Modified Eagle Medium (DMEM; ATCC #30-2002) supplemented with 10% fetal bovine serum, 105 units/ml pen/strep (Invitrogen #15140155) and 2.1 mM L-glutamine (ATCC #30-2214). […]
Where a name gives a salt, the structure may show the parent alone.
Lab note: write the figure by itself, no unit.

Exam item: Any idea what its ICW Avg is? The compound is Cc1cc(C)nc(Nc2nc(-c3ccccc3)c3ccc(Cl)cc3n2)n1 [compound 11636]
Marked response: 62.56

Exam item: Given Cc1cc(C)c2nc(NC3=NC(c4ccccc4)CC(=O)N3)nc(C)c2c1 (stereo not drawn) [AD4-12641 + TFA] , state its recorded ICW Avg.
Marked response: 72.20

Exam item: Need ICW Avg, item Cc1nc(Nc2nc(=O)cc(CSc3ccc(Cl)cc3)[nH]2)nc2ccccc12 [11583 + TFA]
Marked response: 51.10

Exam item: I am curious: what ICW Avg value has been reported for Cc1ccc2c(C)nc(Nc3nc(C(C)C)cc(=O)[nH]3)nc2c1 ?
Marked response: 59.32

Exam item: Which ICW Avg is listed for Cc1ccc2nc(Nc3nc(CSc4nnc(C)s4)cc(=O)[nH]3)nc(C)c2c1 ?
Marked response: 50.68

Exam item: Which ICW Avg is listed for Cc1ccc2c(C)nc(Nc3nc(C)cc(=O)[nH]3)nc2c1 [11725 + TFA] ?
Marked response: 28.93
